Kindly supply the reported inhibition at 1 µM values for the records listed here.
# Assay target: UniProt O75676
# Sequence (O75676 whole entry): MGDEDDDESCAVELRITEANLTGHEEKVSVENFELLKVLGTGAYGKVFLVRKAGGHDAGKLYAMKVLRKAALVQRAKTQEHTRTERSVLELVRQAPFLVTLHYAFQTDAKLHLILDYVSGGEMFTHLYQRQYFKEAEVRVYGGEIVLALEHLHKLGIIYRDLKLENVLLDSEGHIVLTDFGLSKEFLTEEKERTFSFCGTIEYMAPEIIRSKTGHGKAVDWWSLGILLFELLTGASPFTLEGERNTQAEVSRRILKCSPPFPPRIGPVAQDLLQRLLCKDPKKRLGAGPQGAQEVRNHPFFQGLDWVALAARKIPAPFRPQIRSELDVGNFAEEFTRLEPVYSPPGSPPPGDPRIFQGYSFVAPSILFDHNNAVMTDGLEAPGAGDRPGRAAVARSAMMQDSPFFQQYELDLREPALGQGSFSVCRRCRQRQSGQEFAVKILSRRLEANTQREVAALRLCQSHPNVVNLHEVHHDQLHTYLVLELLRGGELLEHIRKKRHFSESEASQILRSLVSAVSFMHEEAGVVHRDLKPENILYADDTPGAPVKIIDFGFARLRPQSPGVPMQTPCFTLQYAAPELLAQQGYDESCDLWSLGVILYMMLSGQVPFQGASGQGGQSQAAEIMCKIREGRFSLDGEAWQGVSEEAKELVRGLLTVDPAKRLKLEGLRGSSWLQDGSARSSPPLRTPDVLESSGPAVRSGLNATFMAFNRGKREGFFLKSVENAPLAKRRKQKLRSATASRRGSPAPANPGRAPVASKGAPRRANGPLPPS
# Experimental protocol: Kinase panel profiling at 1 µmol/L (MSA or IMAP), percentage inhibition
# Assay type: biochemical
# Assay conditions: MSK2; 1 µmol/L single concentration; read-out: %-inhibition, MSK2
State just the number; it will be interpreted in %.

Incoming: What measured inhibition at 1 µM goes with CO[C@]1(C(=O)N[C@@H](C)c2ccc(-n3cc(F)cn3)nc2)CC[C@H](c2nc(C)cc(Nc3cc(C)[nH]n3)n2)CC1 ?
Outgoing: 3.18

Incoming: Let us now turn to C=CC(=O)N1CCC([C@@H]2CCNc3c(C(N)=O)c(-c4ccc(Oc5ccccc5)cc4)nn32)CC1
Outgoing: -4

Incoming: // query: CCN1C(=O)N(c2c(F)c(OC)cc(OC)c2F)Cc2cnc3[nH]c(CN4CCOCC4)cc3c21
Outgoing: -3.61

Incoming: Next compound up: C[C@H]1Oc2cc(cnc2N)-c2c(nn(C)c2C#N)CN(C)C(=O)c2ccc(F)cc21
Outgoing: -3.24

Incoming: Same read-out for Cn1cnc2c(F)c(Nc3ccc(Br)cc3F)c(C(=O)NOCCO)cc21 ?
Outgoing: -3.65

Incoming: Also, Cc1nc(NC(=O)N2CCC[C@H]2C(N)=O)sc1-c1ccnc(C(C)(C)C(F)(F)F)c1 please.
Outgoing: 0.0558

Incoming: Follow-up entry: COc1ccc(CN2C3CC2CN(c2ccc(-c4cc(OCC(C)(C)O)cn5ncc(C#N)c45)cn2)C3)cn1
Outgoing: 5.66

Incoming: Try COC(=O)N[C@@H](C)CNc1nccc(-c2cn(C(C)C)nc2-c2cc(Cl)cc(NS(C)(=O)=O)c2F)n1 next.
Outgoing: -4
